Tested on: NCI-H460
Assay: NCI tumour cell line growth inhibition, 48 h
The source made the active and inactive calls. Cut-off read from the data, not from the text of the source: active = GI50 up to about 1.1 µM and inactive = higher.
observation type: GI50

// below: answered molecules
molecule | GI50
Cc1cc(N(CCC#N)CCC#N)ccc1/C=C1N=C(/C=C/c2ccccc2)N(c2ccc(S(N)(=O)=O)cc2)C\1=O | > 100 µM (inactive)
CC1(C)OCC(C2OC3OC(C)(C)OC3C2c2ccccc2)O1 (stereo unspecified) | 39.8 µM (inactive)
COc1ccc(/C=C\c2cc(OC)c3c(c2)OCO3)c(O)c1O | 5.37 µM (inactive)
Cc1nc2c(nc1C)C(=O)C1=C(C2=O)C2C=CC1CC2 | 17.9 µM (inactive)
COC(=O)c1c(O)ccc2c1c1c(n2Cc2ccccc2Cl)C(=O)c2ccccc2C1=O | 6.78 µM (inactive)
CC(=O)O[C@]1(C(C)=O)CC[C@H]2[C@@H]3C[C@H](C)C4=CC(=O)C=C[C@]4(C)[C@@]3(F)[C@@H](O)C[C@@]21C [FLUOROMETHOLONE ACETATE] | 76.9 µM (inactive)
COC(=O)CCC12CCC(O1)c1ccccc12 (stereo unspecified) | > 100 µM (inactive)
O=C(O)c1ccc(C(c2c(O)oc3ccccc3c2=O)c2c(O)oc3ccccc3c2=O)cc1 | > 100 µM (inactive)

stdin: Form field: reported GI50 of O=C(/C=C/c1c(O)ccc2ccccc12)c1cccc2ccccc12
stdout: > 100 µM (inactive)

stdin: Also, OCC12C=CC(C1)c1ccccc12 (stereo unspecified) please.
stdout: > 100 µM (inactive)

stdin: Also, CCOC(=O)c1ccc(O)cc1 [ETHYLPARABEN] please.
stdout: > 100 µM (inactive)

stdin: Also, COC(=O)NC1=NNC(=O)c2ccccc2N1 please.
stdout: > 100 µM (inactive)

stdin: Also, NC(Cc1ccc(O)c(O)c1)P(=O)(O)O (stereo unspecified) please.
stdout: > 100 µM (inactive)

stdin: Also, Cc1ccc(Oc2ccc(C)cc2N)cc1 please.
stdout: > 100 µM (inactive)

stdin: Also, O=[N+]([O-])/C=C/c1cn(CCCCCn2cc(/C=C/[N+](=O)[O-])c3ccccc32)c2ccccc12 please.
stdout: 1.79 µM (inactive)

====

Tested on: HOP-92
Experiment: NCI tumour cell line growth inhibition, 48 h
Activity calls are given as the source filed them. Cut-off read from the data, not from the text of the source: active = GI50 up to about 1.1 µM and inactive = higher.
observation type: GI50

// below: answered molecules
molecule | GI50
Cc1ccc([S+]([O-])C[C@@]2(C(F)F)NC(=O)NC2=O)cc1 (some centres undefined) | > 100 µM (inactive)
C/C(=C1\C(=O)C(c2ccccc2)N(c2ccccc2)C1=O)c1ccc(Cl)cc1 (centres undefined) | 3.17 µM (inactive)
CCc1nc2ccccc2c(=O)n1/N=C(\N=N\c1ccc(Cl)cc1)c1ccc(N(C)C)cc1 | 13.7 µM (inactive)
O=C(Cc1ccccc1)NCCc1ccc(O)c(O)c1 | > 100 µM (inactive)
COc1ccccc1C(O)(c1ccccc1)C(O)(c1ccccc1)c1ccccc1OC (centres undefined) | 20.3 µM (inactive)
NCCSc1nc(N)c2ncn(C3OC(CO)C(O)C3O)c2n1 (centres undefined) | > 100 µM (inactive)

stdin: Form field: reported GI50 of Cc1cn2c(=O)c3ccccc3nc2s1
stdout: > 100 µM (inactive)

stdin: Also, O=C(O)c1ccc(C(c2c(O)oc3ccccc3c2=O)c2c(O)oc3ccccc3c2=O)cc1 please.
stdout: 2.82 µM (inactive)

stdin: Also, COCCOCCOCCOc1ccc(C(C#N)N(CCc2ccccc2)C(=O)c2cc(C(=O)N(CCc3ccccc3)C(C#N)c3ccc(OCCOCCOCCOC)cc3)cc(C(=O)N(CCc3ccccc3)C(C#N)c3ccc(OCCOCCOCCOC)cc3)c2)cc1 (centres undefined) please.
stdout: 85.7 µM (inactive)
